- method: Components of the Cytosolic LPS Sensing Pathway: Gene Identification via Genome-wide siRNA Screen;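 also: robust z of the log signal after scaling to non-targeting control siRNA wells of the plate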
- test-context: RAW264.7 macrophages, IL-1a HTRF, actives lie on both sides, screened at 100 nM (by protocol), cells primed 5 h with Pam3CSK4 first
- Method: Non-canonical inflammasome activation by cytosolic LPS is a critical component of the host response to Gram-negative bacterial infection, however we lack a comprehensive understanding of the cellular processes that control this pathway. […] Lipofectamine RNAiMAX Transfection Reagent ([…]; Invitrogen) was added in […] serum-free, antibiotic-free media to plate wells using a Thermo Scientific Matrix WellMate and Microplate Stacker. […] The plates were read on an EnVision plate reader (PerkinElmer). […]
In all, about 53,000 sequences went through this assay and about 3,700 (7%) were called active. The entries come from a sample that favours actives as a whole.
# binning rule on z-score: Low (below 0.1), Mid (0.1 to below 0.7), High (0.7 or more)

> print(dat)
                             sequence.data  class.assignment
 1  GGAAAGAAACUAAGGAAAATT against Arhgap15               Mid
 2         GGUCUUCCAAGAAAAAGGCTT against a              High
 3     GCCAUCGAUGUACUGAGCUTT against Psme2               Mid
 4     GGGCAAGGAGACAGAAUUCTT against Fgf18              High
 5   GCUACUCUUAUUCUACUUCTT against Slc29a3               Mid
 6       CCAUUAACUCUUUGAGUAUTT against Omg               Mid
 7     GGACAAUCCGAACAUCAAATT against Sval1               Low
 8    GCUCUGUGAGCGAAAGUUCTT against Synpo2              High
 9    CCAUGUGCUGUGCACUACGTT against Chst14               Mid
10    CCAGCAAUAGUUCAGCAGATT against Ccdc82               Low
11    GGUCAAUGAACAGCACCGGTT against Igfbp2              High
12    CCAUUUCUUUCAGUGGCUGTT against Olfr48               Low

---

- method: Components of the Cytosolic LPS Sensing Pathway: Gene Identification via Genome-wide siRNA Screen;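 also: robust z of the log signal after scaling to non-targeting control siRNA wells of the plate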
- test-context: RAW264.7 macrophages, IL-1a HTRF, actives lie on both sides, screened at 100 nM (by protocol), cells primed 5 h with Pam3CSK4 first
- Method: Non-canonical inflammasome activation by cytosolic LPS is a critical component of the host response to Gram-negative bacterial infection, however we lack a comprehensive understanding of the cellular processes that control this pathway. […] Lipofectamine RNAiMAX Transfection Reagent ([…]; Invitrogen) was added in […] serum-free, antibiotic-free media to plate wells using a Thermo Scientific Matrix WellMate and Microplate Stacker. […] The plates were read on an EnVision plate reader (PerkinElmer). […]
The campaign covered roughly 53,000 sequences. About 3,700 (7%) were called active.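 The calls were made as follows: active = gene knockdowns whose robust z-score for IL-1 alpha signal is at least 2 or at most -2, so actives lie on both sides; inactive = the rest.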 This is one part of a sample in which actives are shown more often than they occur.
Outcome codes: label 1 = active, label 0 = inactive

> print(dat)
                            sequence.data  class.assignment
 1   GGAGUCCCAGGACAUGAAATT against Pou5f1           label 0
 2  GGCUAUGAGGACUCCUAUGTT against Plekha7           label 1
 3    CCCAGCAGGCCAUAUUAGUTT against Cks1b           label 0
 4    GCGGACAUGAGUUUGAAUGTT against Bnipl           label 0
 5     GGAUAAUUGAUCAUAGAGGTT against Ufm1           label 0
 6     GGGACAUGAGUAACUGAUGTT against Dhx8           label 0
 7   GGCUGAUGUGAUGAUUGUATT against Ndufs7           label 1
 8   GCCCUCUUAUCUGAAUAAUTT against Stk17b           label 1
 9   GCCUCCUUUGCUUCAUUUCTT against Fcer1g           label 0
10   GCACAGUUGGCAACCUUUATT against S100a9           label 0
11    GGACAGAGUUACCUAGGCATT against Ticrr           label 1
12    CGGGAAAGAGAUCAUCCCUTT against Nr1i2           label 1
